Entry source: patent US11384066B1

Biological target: Aurora A (Homo sapiens (Human), UniProt O14965)
Sequence (O14965 whole entry): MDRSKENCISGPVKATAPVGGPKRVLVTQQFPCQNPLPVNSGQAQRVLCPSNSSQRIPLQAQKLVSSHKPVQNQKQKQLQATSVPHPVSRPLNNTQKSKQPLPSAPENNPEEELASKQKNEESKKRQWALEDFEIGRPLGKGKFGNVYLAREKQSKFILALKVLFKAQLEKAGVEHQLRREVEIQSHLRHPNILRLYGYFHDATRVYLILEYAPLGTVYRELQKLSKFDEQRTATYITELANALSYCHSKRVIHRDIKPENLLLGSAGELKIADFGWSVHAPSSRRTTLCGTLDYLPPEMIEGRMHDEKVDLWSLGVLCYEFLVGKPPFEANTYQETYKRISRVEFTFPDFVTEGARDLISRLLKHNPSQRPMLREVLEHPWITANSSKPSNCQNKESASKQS
Assay: Aurora A kinase assay (mobility shift assay)
Assay type: biochemical
reported_endpoint: IC50 (nM)
Value expressed in nM; do not type the unit.

These solved cases illustrate the format of a correct answer.
Cc1cc(Nc2cc(C)c(F)c(CC3(C(=O)O)CCN(Cc4cccc(Cl)c4Cl)CC3)n2)n[nH]1 ... 0.43
Cc1cc(Nc2ccc(F)c(C[C@@]3(C(=O)O)CCN(Cc4c(F)cccc4F)[C@H](C)C3)n2)n[nH]1 ... 2.4
Cc1cc(Nc2cc(C)c(F)c(CC3(C(=O)O)CCN(Cc4cccc(F)c4F)CC3)n2)n[nH]1 ... 1.3

Could you now look at the following compound, please?
Exercise: Find the measured IC50 of `Cc1cc(Nc2cc(C)c(F)c(C[C@@]3(C(=O)O)CCN(Cc4c(F)ccc(Cl)c4F)[C@H](C)C3)n2)n[nH]1` with Aurora A (Homo sapiens (Human), UniProt O14965) as test system.
Key: 0.52
